Test system: PEX genes (PEX3, PEX16, PMP22)
ASSAY_COMMENT: PEX (peroxisomal) gene expression in a human keratocyte cell line / cultured human keratinocytes exposed to PPARγ agonists
Format: cell-based
CONDITION_DETAILS: qualitative statement; cultured human keratinocytes
ENDPOINT_LABEL: expression of peroxisomal genes (PEX3, PEX16, PMP22)

Cc1c(C)c2c(c(C)c1O)CCC(C)(COc1ccc(CC3SC(=O)NC3=O)cc1)O2 (single isomer, unassigned; (+)): induce the expression
CCc1ccc(CCOc2ccc(CC3SC(=O)NC3=O)cc2)nc1 (stereo not shown): induce the expression
CC1(COc2ccc(CC3SC(=O)NC3=O)cc2)CCCCC1 (stereo not shown): induce the expression

The reported measurements were obtained from patent US8796282B2.
